Quick reference for Ratio among some molecules
ASSAY PROCEDURE: Selectivity ratio of Ki of alpha-1 adrenergic receptor to alpha-2 receptor
Answer field: number only, no words.

>  <MOLECULE>
C=C(c1c[nH]cn1)c1cccc2ccccc12

>  <MEASURED ATTRIBUTE>
Ratio

>  <ENDPOINT RESULT>
14.2

$$$$

Field request: Ratio | item: C/C=C(\c1c[nH]cn1)c1cccc2ccccc12 0.03

Another molecule to look at: c1cc2c3c(cccc3c1)C(c1c[nH]cn1)CC2 (stereo unspecified) 1.67

Another molecule to look at: C/C=C(/c1c[nH]cn1)c1cccc2ccccc12 0.26

Another molecule to look at: CCC(c1c[nH]cn1)c1cccc2ccccc12 (stereo unspecified) 3.48

Another molecule to look at: CC(c1c[nH]cn1)c1cccc2ccccc12 (stereo unspecified) 17.2

====

Quick reference for Ki among some compounds
TARGET OR SYSTEM: Adrenergic receptor alpha-1 (Rattus norvegicus, UniProt P15823+P23944+P43140)
ASSAY PROCEDURE: Alpha-1 adrenergic receptor binding affinity in rat brain membranes
Format: cell membranes

Record excerpt, results attached:
>  <COMPOUND>
C/C=C(/c1c[nH]cn1)c1cccc2ccccc12

>  <ENDPOINT RESULT>
0.387 µM

$$$$
>  <COMPOUND>
C=C(c1c[nH]cn1)c1cccc2ccccc12

>  <ENDPOINT RESULT>
1.734 µM

$$$$
>  <COMPOUND>
c1cc2c3c(cccc3c1)C(c1c[nH]cn1)CC2 (stereo not drawn)

>  <ENDPOINT RESULT>
0.055 µM

$$$$
>  <COMPOUND>
C[C@H](N)[C@H](O)c1ccc(O)c(O)c1

>  <ENDPOINT RESULT>
9.221 µM

$$$$
>  <COMPOUND>
CCC(c1c[nH]cn1)c1cccc2ccccc12 (stereo not drawn)

>  <ENDPOINT RESULT>
0.574 µM

$$$$

Field request: Ki | item: c1ccc2c3c(ccc2c1)CCCC3c1c[nH]cn1 (stereo not drawn) 0.655 µM

Another compound to look at: C/C=C(\c1c[nH]cn1)c1cccc2ccccc12 0.057 µM

Another compound to look at: CC(c1c[nH]cn1)c1cccc2ccccc12 (stereo not drawn) 0.224 µM

====

TARGET OR SYSTEM: Adrenergic receptor alpha-2 (Rattus norvegicus, UniProt P22086+P19328+P22909)
ASSAY PROCEDURE: Alpha-2 adrenergic receptor binding affinity was tested against membrane preparations of rat brain using 0.2 nM [3H]rauwolscine as radioligand
Label key: TRUE means Ki under 0.2 µM; FALSE means Ki of 0.2 µM or more.

Previously resolved entries follow.
>  <COMPOUND>
CC(c1c[nH]cn1)c1cccc2ccccc12 (stereo unspecified)

>  <CATEGORY LABEL>
TRUE

$$$$
>  <COMPOUND>
C/C=C(\c1c[nH]cn1)c1cccc2ccccc12

>  <CATEGORY LABEL>
FALSE

$$$$
>  <COMPOUND>
c1cc2c3c(cccc3c1)C(c1c[nH]cn1)CC2 (stereo unspecified)

>  <CATEGORY LABEL>
TRUE

$$$$
>  <COMPOUND>
C=C(c1c[nH]cn1)c1cccc2ccccc12

>  <CATEGORY LABEL>
TRUE

$$$$
>  <COMPOUND>
C/C=C(/c1c[nH]cn1)c1cccc2ccccc12

>  <CATEGORY LABEL>
FALSE

$$$$

Problem: For the compound CCC(c1c[nH]cn1)c1cccc2ccccc12 (stereo unspecified) , is Ki under 0.2 µM? TRUE
